These entries and their values trace back to patent US6525059B1.

# system.under.test: human p38 kinase alpha (Homo sapiens)
# Construct: The coding region of the human p38a cDNA was obtained by PCR-amplification from RNA isolated from the human monocyte cell line THP.1; GST (N); made in house; host or cells: E. coli DH10B
# test.description: p38 kinase in vitro assay, phosphorylation of biotinylated PHAS-I with gamma 32P-ATP
# Assay type: biochemical
# measurement.setup: @ 1.0 uM; read-out: P38 alpha kinase % inhib @ conc.
Rule: inhibition at 1 µM of 90% or more gives Fulfilled; anything lower gives Not fulfilled.

Example entries begin here.
C[C@@H](NC(=O)NCc1[nH]nc(-c2ccc(F)cc2)c1-c1ccncc1)c1ccccc1 [Example B-0176]: Not fulfilled
Cc1cc(C)c(NC(=O)NCc2[nH]nc(-c3ccc(F)cc3)c2-c2ccncc2)c(C)c1 [Example B-0186]: Not fulfilled

Given the entry O=[N+]([O-])c1cc(S(=O)(=O)NCc2[nH]nc(-c3ccc(F)cc3)c2-c2ccncc2)ccc1Cl [Example B-0102] , answer whether its inhibition at 1 µM meets or surpasses 90%.
Not fulfilled

Tell me whether inhibition at 1 µM is at least 90% here: CC(C)[C@H]1CC[C@@H](C)C[C@@H]1OCC(=O)NCc1[nH]nc(-c2ccc(F)cc2)c1-c1ccncc1 [Example B-0084]
Not fulfilled

Reported inhibition at 1 µM reaches at least 90% for O=C(CCc1ccccc1)NCc1[nH]nc(-c2ccc(F)cc2)c1-c1ccncc1 [Example B-0076] ?
Not fulfilled

// inclusive: inhibition at 1 µM at least 90%? input: O=S(=O)(NCc1[nH]nc(-c2ccc(F)cc2)c1-c1ccncc1)c1ccc(Cl)c(Cl)c1 [Example B-0135]
Not fulfilled

Hi, just wondering whether O=[N+]([O-])c1cccc(S(=O)(=O)NCc2[nH]nc(-c3ccc(F)cc3)c2-c2ccncc2)c1 [Example B-0114] shows inhibition at 1 µM of 90% or higher.
Not fulfilled

Kindly determine if inhibition at 1 µM recorded for O=C(NCc1[nH]nc(-c2ccc(F)cc2)c1-c1ccncc1)c1cccc(F)c1 [Example B-0069] is above or exactly 90%.
Fulfilled

Decide: is the reported value of inhibition at 1 µM for COc1cc(C(=O)NCc2[nH]nc(-c3ccc(F)cc3)c2-c2ccncc2)cc(OC)c1OC [Example B-0085] equal to or greater than 90%?
Not fulfilled

API: above_or_equal(metric=inhibition at 1 µM, cutoff=90%) for item O=C(NCc1[nH]nc(-c2ccc(F)cc2)c1-c1ccncc1)c1ccccc1 [Example B-0063]
Fulfilled

Decide: inhibition at 1 µM of CCCC(CCC)C(=O)NCc1[nH]nc(-c2ccc(F)cc2)c1-c1ccncc1 [Example B-0057] >= 90%?
Fulfilled

Determine whether measured inhibition at 1 µM meets or exceeds 90% for O=C(NCc1[nH]nc(-c2ccc(F)cc2)c1-c1ccncc1)c1ccc(C(F)(F)F)cc1F [Example B-0061]
Not fulfilled

Determine whether measured inhibition at 1 µM meets or exceeds 90% for O=S(=O)(NCc1[nH]nc(-c2ccc(F)cc2)c1-c1ccncc1)c1ccc(Cl)s1 [Example B-0144]
Not fulfilled

Is reported inhibition at 1 µM greater than or equal to 90% here: COc1cc(OC)cc(C(=O)NCc2[nH]nc(-c3ccc(F)cc3)c2-c2ccncc2)c1 [Example B-0072]
Not fulfilled

Has O=C(NCc1[nH]nc(-c2ccc(F)cc2)c1-c1ccncc1)c1cccnc1Cl [Example B-0053] a recorded inhibition at 1 µM greater than or equal to 90%?
Fulfilled

Assess whether reported inhibition at 1 µM for COC(=O)CCCCCCC(=O)NCc1[nH]nc(-c2ccc(F)cc2)c1-c1ccncc1 [Example B-0088] sits at 90% or higher.
Fulfilled

Is inhibition at 1 µM at least 90%? Consider Cc1cc(C)c(S(=O)(=O)NCc2[nH]nc(-c3ccc(F)cc3)c2-c2ccncc2)c(C)c1 [Example B-0109]
Not fulfilled

Reported inhibition at 1 µM at or above 90%? O=S(=O)(NCc1[nH]nc(-c2ccc(F)cc2)c1-c1ccncc1)c1ccc(F)cc1 [Example B-0104]
Not fulfilled

Evaluate O=C(NCc1ccccc1)NCc1[nH]nc(-c2ccc(F)cc2)c1-c1ccncc1 [Example B-0151] : inhibition at 1 µM at minimum 90%?
Not fulfilled

Hello, I need to know if COC(=O)c1ccc(C(=O)NCc2[nH]nc(-c3ccc(F)cc3)c2-c2ccncc2)cc1 [Example B-0082] has measured inhibition at 1 µM not below 90%. Thanks!
Not fulfilled

###

# system.under.test: human p38 kinase alpha (Homo sapiens, UniProt Q16539)
# Construct: The coding region of the human p38a cDNA was obtained by PCR-amplification from RNA isolated from the human monocyte cell line THP.1; GST (N); made in house; host or cells: E. coli DH10B
# Sequence (Q16539 whole entry): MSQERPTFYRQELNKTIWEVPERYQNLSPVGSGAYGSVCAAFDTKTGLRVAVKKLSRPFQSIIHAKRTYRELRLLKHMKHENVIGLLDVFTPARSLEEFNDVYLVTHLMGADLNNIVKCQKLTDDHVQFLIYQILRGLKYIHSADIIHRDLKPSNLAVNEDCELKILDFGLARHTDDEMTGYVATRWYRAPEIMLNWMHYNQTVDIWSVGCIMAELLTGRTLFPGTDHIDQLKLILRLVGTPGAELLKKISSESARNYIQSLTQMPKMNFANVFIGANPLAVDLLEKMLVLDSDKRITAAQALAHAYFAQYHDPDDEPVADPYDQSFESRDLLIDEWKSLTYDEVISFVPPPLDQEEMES
# test.description: p38 kinase in vitro assay, phosphorylation of biotinylated PHAS-I with gamma 32P-ATP
# Type: biochemical
# measurement.setup: read-out: P38 alpha kinase IC50
# Protocol: The ability of compounds to inhibit human p38 kinase alpha was evaluated using two in vitro assay methods. […] Following incubation, 20 μl of reaction mixture was transferred to a high capacity streptavidin coated filter plate (SAM-streptavidin-matrix, Promega) prewetted with phosphate buffered saline. […] The plates were sealed and counted.
pIC50: −log10 of the molar value.
Rule: pIC50 under 7 gives 0.0, otherwise 1.0.

Worked examples follow.
C[C@@H](NS(=O)(=O)c1cccc2nonc12)c1[nH]nc(-c2ccc(F)cc2)c1-c1ccncc1: 0.0
O=C(c1ccccc1Br)N1CCC(c2[nH]nc(-c3ccc(F)cc3)c2-c2ccncc2)CC1: 0.0
O=C(NCc1[nH]nc(-c2ccc(F)cc2)c1-c1ccncc1)c1ccc(F)c(F)c1: 0.0
C[C@@H](NC(=O)c1cc(F)cc(C(F)(F)F)c1)c1[nH]nc(-c2ccc(F)cc2)c1-c1ccncc1: 0.0
C[C@@H](NC(=O)c1cc2ccccc2s1)c1[nH]nc(-c2ccc(F)cc2)c1-c1ccncc1: 0.0
COC(=O)CCC(=O)NCc1[nH]nc(-c2ccc(F)cc2)c1-c1ccncc1: 0.0
O=C(NCc1[nH]nc(-c2ccc(F)cc2)c1-c1ccncc1)c1cccc(F)c1F: 0.0
CN(C)[C@H]1CC[C@@H](c2[nH]nc(-c3ccc(Cl)cc3)c2-c2ccncc2)CC1: 1.0
CC(NS(=O)(=O)CC12CCC(CC1=O)C2(C)C)c1[nH]nc(-c2ccc(F)cc2)c1-c1ccncc1 (stereo not shown) [Example B-0435]: 0.0
C[C@@H](NS(=O)(=O)c1ccc(-c2ccccc2)cc1)c1[nH]nc(-c2ccc(F)cc2)c1-c1ccncc1: 1.0

Does the reported pIC50 for CS(=O)(=O)c1ccccc1S(=O)(=O)NCc1[nH]nc(-c2ccc(F)cc2)c1-c1ccncc1 fall at or above the 7 mark?
0.0

In plain terms: is recorded pIC50 at least 7 for CC(=O)O[C@@H](C)C(=O)N[C@H](C)c1[nH]nc(-c2ccc(F)cc2)c1-c1ccncc1 ?
0.0

###

# Test system: TNF a
# test.description: LPS stimulation of human PBMs, TNF a by ELISA
# Type: cell-based
# measurement.setup: LPS-stimulated human PBMs, TNF cell assay; read-out: Human PBM Assay IC50
# Experimental: Human whole blood was collected in Vacutainer tubes containing EDTA as an anticoagulant. A blood sample (7 ml) was carefully layered over 5 ml PMN Cell Isolation Medium (Robbins Scientific) in a 15 ml round bottom centrifuge tube. The sample was centrifuged at 450-500×g for 30-35 minutes in a swing out rotor at room temperature. […] Compounds were dissolved in DMSO initially and diluted in TCM for a final-concentration of 0.1% DMSO. […] Viability was analyzed using MTS. […]
IC50 under 1 µM gets Y, anything at or over 1 µM gets N.

Cc1n[nH]c(-c2ccc3c(c2)OCO3)c1-c1ccncc1: Y

Report whether reported IC50 is lower than 1 µM (strictly) for Cc1n[nH]c(-c2ccccc2)c1-c1ccncc1
N

I wonder whether Cc1n[nH]c(-c2cccc(O)c2)c1-c1ccncc1 has IC50 below 1 µM. Can you tell?
N

Lab note: confirm whether the reported IC50 for this molecule is below 1 µM, equality not counting. molecule: Cc1[nH]nc(-c2ccc(F)cc2)c1-c1ccncc1
Y

Please let me know if Cc1n[nH]c(C2CCCCC2)c1-c1ccncc1 shows IC50 below 1 µM.
N

IC50 strictly < 1 µM for this molecule? Cc1n[nH]c(-c2cccc(OCc3ccccc3)c2)c1-c1ccncc1
N

###

result.type: melting point

Study these solved cases before continuing.
O=c1cc(-c2c(-c3ccncc3)c(-c3ccc(F)cc3)nn2CCO)cc[nH]1: 250 to 251 °C
CN1CCN(c2n[nH]c(-c3cccc(Cl)c3)c2-c2ccncc2)CC1: 229 to 231 °C

Now consider a different compound.
Please give measured melting point of the following entry: CN1CCN(c2[nH]nc(-c3ccc(OC(F)(F)F)cc3)c2-c2ccncc2)CC1
221 to 221.2 °C
